meta.source: patent US4256765A

test: Acute toxicity (LD50); assay type: in vivo; conditions: rat, in vivo, po
measured_parameter: LD50

q: Any idea what its LD50 is? The molecule is CCC(CC)C(=O)NCC(=O)NO [Compound B]
a: > 9000 mg/kg

###

# Lookup of reported pIC50 keyed by entry
target: Urease extracted and purified from sword bean (Canavalia gladiata)
Sequence (A0AAN9R4W0 entry or part of it): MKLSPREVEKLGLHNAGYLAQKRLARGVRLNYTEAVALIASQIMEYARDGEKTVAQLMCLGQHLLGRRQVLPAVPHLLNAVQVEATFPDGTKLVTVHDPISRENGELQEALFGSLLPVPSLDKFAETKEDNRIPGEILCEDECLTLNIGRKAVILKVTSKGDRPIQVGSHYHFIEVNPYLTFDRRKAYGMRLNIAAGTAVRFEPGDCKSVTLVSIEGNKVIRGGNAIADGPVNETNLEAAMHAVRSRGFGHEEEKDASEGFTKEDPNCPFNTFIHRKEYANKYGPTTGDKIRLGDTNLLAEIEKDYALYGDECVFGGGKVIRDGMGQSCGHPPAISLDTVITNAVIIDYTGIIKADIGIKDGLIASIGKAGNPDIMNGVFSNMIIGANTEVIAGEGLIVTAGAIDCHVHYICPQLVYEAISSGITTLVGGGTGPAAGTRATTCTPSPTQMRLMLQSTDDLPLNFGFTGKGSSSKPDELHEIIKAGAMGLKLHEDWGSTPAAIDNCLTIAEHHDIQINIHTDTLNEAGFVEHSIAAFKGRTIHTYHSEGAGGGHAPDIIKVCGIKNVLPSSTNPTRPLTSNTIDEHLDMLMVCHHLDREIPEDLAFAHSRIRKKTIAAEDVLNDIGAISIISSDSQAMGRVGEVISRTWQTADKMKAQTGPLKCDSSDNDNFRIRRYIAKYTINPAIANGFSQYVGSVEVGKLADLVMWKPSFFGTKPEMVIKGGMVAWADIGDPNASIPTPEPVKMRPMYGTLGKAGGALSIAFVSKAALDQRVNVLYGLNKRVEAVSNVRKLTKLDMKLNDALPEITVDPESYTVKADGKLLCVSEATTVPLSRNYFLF
Lab note: report pIC50 as minus log10 of the concentration in molar units, number only.

Check out these entries, answers already filled in.
[
  {
    "molecule": "CC(C)(C)C(=O)NCC(=O)NO [Compound A, N-(pivaloyl)-glycinohydroxamic acid]",
    "pIC50": 5.36
  },
  {
    "molecule": "CCC(C)C(=O)NCC(=O)NO (racemic) [Compound C]",
    "pIC50": 5.89
  }
]

Continue with the next molecule.
q: Any idea what its pIC50 is? The molecule is CCC(CC)C(=O)NCC(=O)NO [Compound B]
a: 6.10

###

assay: Urinary excretion in rats; type: in vivo, SD strain male rats; conditions: rat, po; 100 mg/Kg orally, SD male rats, urine excreted within 24 hours; read-out: Urinary excretion (%) (mean value ± S. E.)
# Lookup of reported dose excreted at 24 h keyed by entry

Check out these entries, answers already filled in.
[
  {
    "compound": "CCC(C)C(=O)NCC(=O)NO (racemic)",
    "experimental_value": "9.25%"
  },
  {
    "compound": "CCC(CC)C(=O)NCC(=O)NO",
    "experimental_value": "5.37%"
  }
]

q: Any idea what its dose excreted at 24 h is? The compound is CC(C)(C)C(=O)NCC(=O)NO [Compound A, N-(pivaloyl)-glycinohydroxamic acid]
a: 14.6%

###

# Lookup of reported LD50 keyed by entry
assay: Acute toxicity (LD50); format: in vivo; conditions: rat, in vivo; oral, SD male and female rats

[
  {
    "compound": "CC(C)(C)C(=O)NCC(=O)NO [Compound A, N-(pivaloyl)-glycinohydroxamic acid]",
    "measured_parameter": "LD50",
    "experimental_value": "> 9000 mg/kg"
  }
]

q: Any idea what its LD50 is? The compound is CCC(C)C(=O)NCC(=O)NO (racemic)
a: > 9000 mg/kg
